AC50 values for the molecules below.
# system.tested: Glutamate receptor ionotropic, NMDA 1 (Rattus norvegicus, UniProt P35439); further: assay procedure not described here

Record excerpt, results attached:
CC(=O)OCC(=O)[C@@]1(O)CC[C@H]2[C@@H]3CCC4=CC(=O)CC[C@]4(C)[C@@]3(F)[C@@H](O)C[C@@]21C [FLUDROCORTISONE ACETATE]: > 30 µM
CCCCCCCC(=O)CC[C@@H]1[C@@H](C/C=C\CCCC(=O)O)[C@@H](O)C[C@H]1O: > 30 µM
CC[N+](CC)(CCNC(=O)C(=O)NCC[N+](CC)(CC)Cc1ccccc1Cl)Cc1ccccc1Cl: > 30 µM
N=C(N)NC(=O)c1nc(Cl)c(N)nc1N [AMILORIDE]: > 30 µM
CC1=C(CC(=O)O)c2cc(F)ccc2/C1=C\c1ccc([S+](C)[O-])cc1 (stereo not drawn): > 10 µM

We now examine a further molecule.
AC50 reported for this molecule `CCC1(CC)C(=O)NC(=O)N(C)C1=O` : > 10 µM

====

# key: entry, value: AC50
# system.tested: 5-hydroxytryptamine receptor 2B (Homo sapiens); further: assay procedure not described here
# Sequence (P41595 whole entry): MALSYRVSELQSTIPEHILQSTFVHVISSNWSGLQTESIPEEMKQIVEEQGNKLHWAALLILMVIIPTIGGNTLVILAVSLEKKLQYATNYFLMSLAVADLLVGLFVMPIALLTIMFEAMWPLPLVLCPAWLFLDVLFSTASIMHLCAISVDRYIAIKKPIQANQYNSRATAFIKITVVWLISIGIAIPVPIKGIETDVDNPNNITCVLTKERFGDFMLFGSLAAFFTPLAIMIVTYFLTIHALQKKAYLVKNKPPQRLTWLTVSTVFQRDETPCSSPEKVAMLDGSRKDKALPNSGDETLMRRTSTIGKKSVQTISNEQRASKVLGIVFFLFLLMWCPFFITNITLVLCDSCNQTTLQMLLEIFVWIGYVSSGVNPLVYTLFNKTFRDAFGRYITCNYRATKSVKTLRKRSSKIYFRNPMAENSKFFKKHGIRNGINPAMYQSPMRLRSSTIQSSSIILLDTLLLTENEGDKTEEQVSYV
# Assay type: functional, cell-based

CC1(C)O[C@@H]2C[C@H]3[C@@H]4CCC5=CC(=O)C=C[C@]5(C)[C@@]4(F)[C@@H](O)C[C@]3(C)[C@]2(C(=O)CO)O1 [TRIAMCINOLONE ACETONIDE]: > 30 µM
N[C@@H](Cc1cc(I)c(Oc2cc(I)c(O)c(I)c2)c(I)c1)C(=O)O: > 30 µM
OCCOCCN1CCN(C(c2ccccc2)c2ccc(Cl)cc2)CC1 (configuration not stated) [HYDROXYZINE]: 2.2 µM

I looked up `CO/N=C(\C(=O)N[C@@H]1C(=O)N2C(C(=O)[O-])=C(C[n+]3ccc(N)n3CCO)CS[C@H]12)c1csc(N)n1` and its AC50 for 5-hydroxytryptamine receptor 2B (Homo sapiens) was > 30 µM

Reading of AC50 for `Nc1nc(Cl)nc2c1ncn2[C@@H]1O[C@H](CO)[C@@H](O)[C@@H]1F` with 5-hydroxytryptamine receptor 2B (Homo sapiens): > 30 µM

So the reported AC50 for `C[C@]12CCC(=O)C=C1C=C[C@@H]1[C@@H]2CC[C@@]2(C)[C@H]1CC[C@@]21CCC(=O)O1` , on 5-hydroxytryptamine receptor 2B (Homo sapiens), turned out to be > 30 µM

Bench note, 5-hydroxytryptamine receptor 2B (Homo sapiens): CCC(=O)[C@@]1(C)[C@H](C)C[C@H]2[C@@H]3CCC4=CC(=O)C=C[C@]4(C)[C@H]3[C@@H](O)C[C@@]21C [RIMEXOLONE] , AC50 reads > 10 µM

====

Where a SMILES comes first, the peptide text is derived from it.
So I've got AC50 readings for Neuropeptide Y receptor type 1 (Homo sapiens), take a look.

C[C@H](N)C(=O)N[C@@H](CCC(N)=O)C(=O)O [ALANYL GLUTAMINE] (H-Ala-Gln-OH): > 30 µM
O=C(O)COC(=O)Cc1ccccc1Nc1c(Cl)cccc1Cl [ACECLOFENAC]: > 30 µM
CCOc1ccccc1OCCN[C@H](C)Cc1ccc(OC)c(S(N)(=O)=O)c1 [TAMSULOSIN]: > 30 µM
CCC(NC(C)C)C(O)c1ccc(O)c(O)c1 (stereo not given) [ISOETHARINE]: > 30 µM

We now examine a further compound.
Entry `C=CC1=C(C(=O)O)N2C(=O)[C@@H](NC(=O)/C(=N\O)c3csc(N)n3)[C@H]2SC1` under Neuropeptide Y receptor type 1 (Homo sapiens) had AC50 of > 30 µM
